Test system: NCI-H446 (Small Cell Lung Carcinoma)
ASSAY COMMENT: combination Emax (second highest fraction inhibited in the dose matrix, 72 h); higher = more inhibition; extreme values may be limits of the assay
MEASURED QUANTITY: combination Emax
Reply with the value as a number alone.

[in] Item: CC1(C)CCC(CN2CCN(c3ccc(C(=O)NS(=O)(=O)c4ccc(NCC5CCOCC5)c([N+](=O)[O-])c4)c(Oc4cnc5[nH]ccc5c4)c3)CC2)=C(c2ccc(Cl)cc2)C1 [Venetoclax] + Cc1cc2ncnn2cc1Nc1ncc2c(n1)n(C1CCOCC1)c(=O)n2C [AZD7648] (first compound max 1 µM, 7x7, partner max 10 µM) Test system: NCI-H446 (Small Cell Lung Carcinoma) Read-out: combination Emax Value: ?
[out] 0.403

[in] Form field: combination Emax recorded for COc1nnc2ccc(N3CCC(c4ccc(OCCN5CCN(C)C(=O)[C@H]5C)cc4)CC3)nn12 [AZD5153] + Cn1cnc2c(F)c(Nc3ccc(Br)cc3Cl)c(C(=O)NOCCO)cc21 [Selumetinib] (first compound max 1 µM, 7x7, partner max 10 µM) with NCI-H446 (Small Cell Lung Carcinoma) (enter value)
[out] 0.91

[in] Value wanted: combination Emax (NCI-H446 (Small Cell Lung Carcinoma)) of entry CC1(C)CCC(CN2CCN(c3ccc(C(=O)NS(=O)(=O)c4ccc(NCC5CCOCC5)c([N+](=O)[O-])c4)c(Oc4cnc5[nH]ccc5c4)c3)CC2)=C(c2ccc(Cl)cc2)C1 [Venetoclax] + C[C@@H]1COCCN1C2=NC(=NC(=C2)C3(CC3)[S@](=N)(=O)C)C4=C5C=CNC5=NC=C4 [AZD6738] (first compound max 1 µM, 7x7, partner max 10 µM)
[out] 0.924

[in] Kindly state the measured combination Emax obtained for Cc1c2c(nn1C)CSCc1cc(n(C)n1)CSc1cc(c3ccccc3c1)OCCCc1c(C(=O)O)n(C)c3c-2c(Cl)ccc13 [AZD5991] + Cn1cnc2c(F)c(Nc3ccc(Br)cc3Cl)c(C(=O)NOCCO)cc21 [Selumetinib] (first compound max 1 µM, 7x7, partner max 3 µM) with NCI-H446 (Small Cell Lung Carcinoma).
[out] 0.563

[in] Hello, I am looking for reported combination Emax with NCI-H446 (Small Cell Lung Carcinoma) for Cc1c2c(nn1C)CSCc1cc(n(C)n1)CSc1cc(c3ccccc3c1)OCCCc1c(C(=O)O)n(C)c3c-2c(Cl)ccc13 [AZD5991] + C[C@@H](Nc1cc(F)cc(F)c1)c1cc(C(=O)N(C)C)cc2c(=O)cc(N3CCOCC3)oc12 [AZD8186] (first compound max 1 µM, 7x7, partner max 3 µM) . Could you help?
[out] 0.882

[in] combination Emax of Cn1cnc2c(F)c(Nc3ccc(Br)cc3Cl)c(C(=O)NOCCO)cc21 [Selumetinib] + CCN(CCO)CCCOc1ccc2c(Nc3cc(CC(=O)Nc4cccc(F)c4)[nH]n3)ncnc2c1 [AZD2811] (first compound max 10 µM, 7x7, partner max 1 µM) on NCI-H446 (Small Cell Lung Carcinoma)?
[out] 0.91

[in] # returns recorded combination Emax (system: NCI-H446 (Small Cell Lung Carcinoma)) for NC1(C(=O)N[C@@H](CCO)c2ccc(Cl)cc2)CCN(c2ncnc3[nH]ccc23)CC1 [Capivasertib] + CCN(CCO)CCCOc1ccc2c(Nc3cc(CC(=O)Nc4cccc(F)c4)[nH]n3)ncnc2c1 [AZD2811] (first compound max 10 µM, 7x7, partner max 1 µM)
[out] 0.958

Data provenance is the supplement of paper PMC11061612.
